Data origin: the RNAGym collection of RNA variant scans (doi:10.7554/elife.90254)

B1: LINE1-full (parent)
chain: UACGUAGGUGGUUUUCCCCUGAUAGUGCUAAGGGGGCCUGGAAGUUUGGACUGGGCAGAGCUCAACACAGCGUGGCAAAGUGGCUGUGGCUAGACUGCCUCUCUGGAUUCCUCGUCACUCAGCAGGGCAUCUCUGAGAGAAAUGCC

Variants of: B1
Experiment: self-cleavage, relative activity (ratio to wild type); higher = more cleavage; in vitro, sequencing; the parent is a self-cleaving ribozyme
Is self-cleavage at least 1? Then MET. If not, NOT MET.

| variant.spec | label |
| --- | --- |
| G58A C145U | NOT MET |
| U62C U130C | NOT MET |
| G7A A94G | NOT MET |
| C95A U130C | NOT MET |
| G114A U143G | MET |
| U14C G40U | MET |
| G127U | MET |
| A121G U134A | MET |
| U87G A121U | NOT MET |
| U15C G21A | MET |
| C19A A138C | MET |
